- TARGET: ROCK2 (Homo sapiens, UniProt O75116)
- Construct: purchased Upstate/Chemicon 14-451
- Sequence (O75116 11-552 limits assumed): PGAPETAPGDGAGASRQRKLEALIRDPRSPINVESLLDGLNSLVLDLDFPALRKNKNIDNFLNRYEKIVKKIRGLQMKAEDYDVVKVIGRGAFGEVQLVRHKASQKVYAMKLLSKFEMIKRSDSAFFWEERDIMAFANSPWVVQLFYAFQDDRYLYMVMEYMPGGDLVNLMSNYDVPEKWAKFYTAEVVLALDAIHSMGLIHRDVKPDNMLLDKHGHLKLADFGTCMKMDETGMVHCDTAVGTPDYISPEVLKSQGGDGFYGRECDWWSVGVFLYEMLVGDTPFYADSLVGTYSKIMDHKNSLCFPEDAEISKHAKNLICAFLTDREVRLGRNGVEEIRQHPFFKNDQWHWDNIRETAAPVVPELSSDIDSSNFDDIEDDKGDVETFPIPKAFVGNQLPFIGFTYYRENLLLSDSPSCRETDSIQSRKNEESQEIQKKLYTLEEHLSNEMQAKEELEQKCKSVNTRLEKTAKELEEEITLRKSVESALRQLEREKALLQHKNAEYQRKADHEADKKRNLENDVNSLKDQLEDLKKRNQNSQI
- TEST: Rho kinase inhibition assay (IMAP fluorescence polarization), ROCK2
- Type: biochemical
- RECORDED CONDITIONS: 10 μM ATP; read-out: ROCK2 Ki, Avg
READOUT NAME: pKi
pKi here: minus log base 10 of the concentration, concentration in moles per litre.

Exam item: Provide pKi, system ROCK2 (Homo sapiens, UniProt O75116), entry CS(=O)(=O)c1cccc(CN2CCC[C@H](Nc3ccc4[nH]ncc4c3)C2)c1
Marked response: 7.51

Exam item: Provide pKi, system ROCK2 (Homo sapiens, UniProt O75116), entry c1cc(N[C@@H]2CCN(Cc3ccc4c(c3)OCCO4)C2)c2ccncc2c1
Marked response: 7.31

Exam item: Provide pKi, system ROCK2 (Homo sapiens, UniProt O75116), entry NCc1ccc(CN2CCC[C@H](Nc3ccc4[nH]ncc4c3)C2)cc1
Marked response: 6.64

Exam item: Provide pKi, system ROCK2 (Homo sapiens, UniProt O75116), entry Fc1ccc(CN2CCC[C@H](Nc3ccc4[nH]ncc4c3)C2)cc1F
Marked response: 8.25

Exam item: Provide pKi, system ROCK2 (Homo sapiens, UniProt O75116), entry OCCOc1cccc(CN2CCCC(Nc3ccc4[nH]ncc4c3)C2)c1 (centres unmarked)
Marked response: 7.61

* * *

Can you tell me Ki for the items I'm about to list?
- TARGET: p70S6K human enzyme (Homo sapiens, UniProt P23443, T412E)
- Construct: purchased Upstate Chemicon 14-486
- Sequence (P23443 1-421 T412E limits assumed): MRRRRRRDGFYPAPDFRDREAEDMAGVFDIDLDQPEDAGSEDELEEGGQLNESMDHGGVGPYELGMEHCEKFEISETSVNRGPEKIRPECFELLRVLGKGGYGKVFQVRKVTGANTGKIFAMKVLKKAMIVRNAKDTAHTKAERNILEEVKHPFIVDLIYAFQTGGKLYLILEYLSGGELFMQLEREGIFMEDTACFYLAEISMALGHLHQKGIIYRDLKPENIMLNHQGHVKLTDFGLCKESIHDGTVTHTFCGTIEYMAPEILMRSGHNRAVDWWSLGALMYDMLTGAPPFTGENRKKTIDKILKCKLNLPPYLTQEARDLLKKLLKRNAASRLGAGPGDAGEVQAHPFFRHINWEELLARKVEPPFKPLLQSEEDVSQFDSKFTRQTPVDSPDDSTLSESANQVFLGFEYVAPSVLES
- TEST: p70S6K inhibition assay (IMAP FP)
- Format: biochemical
- RECORDED CONDITIONS: 30 μM ATP; Ki=IC50/(1+([ATP Challenge]/EC50 ATP)); read-out: p70S6K Ki, Avg
Form entry: value (µM) — number only.

Exam item: In one line, give reported Ki of the entry c1cc2cc(CN3CCC[C@H](Nc4ccc5[nH]ncc5c4)C3)ccc2o1 [Compound 1.150] .
Marked response: 1.27

Exam item: In one line, give reported Ki of the entry OCCOc1cccc(CN2CC[C@@H](Nc3cccc4cnccc34)C2)c1 [Compound 2.039] .
Marked response: 1.01

Exam item: In one line, give reported Ki of the entry FC(F)(F)c1ccc(CN2CCC[C@H](Nc3ccc4[nH]ncc4c3)C2)cc1 [Compound 1.167] .
Marked response: 1.07

* * *

Can you tell me pKi for the items I'm about to list?
- TARGET: p70S6K human enzyme (Homo sapiens, UniProt P23443, T412E)
- Construct: purchased Upstate Chemicon 14-486
- TEST: p70S6K inhibition assay (IMAP FP);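 note: kinase reaction run at room temperature, phosphorylated substrate captured on IMAP beads and read as fluorescence polarization in mP, IC50 then converted to Ki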
- Assay type: biochemical
- RECORDED CONDITIONS: average Ki; read-out: p70S6K Ki
pKi here: minus log base 10 of the concentration, concentration in moles per litre.

Exam item: In one line, give reported pKi of the entry c1cc(CN2CCC[C@H](Nc3ccc4[nH]ncc4c3)C2)cc(C2CC2)c1 [Compound 1.186] .
Marked response: 5.79

Exam item: In one line, give reported pKi of the entry CS(=O)(=O)Nc1cccc(CN2CCCC(Nc3ccc4[nH]ncc4c3)C2)c1 (stereo in doubt) [Compound 1.091] .
Marked response: 5.85

Exam item: In one line, give reported pKi of the entry OCCn1ccc2ccc(CN3CC[C@@H](Nc4cccc5cnccc45)C3)cc21 [Compound 2.060] .
Marked response: 6.74

Exam item: In one line, give reported pKi of the entry Cc1cccc(CN2CCC[C@H](Nc3ccc4[nH]ncc4c3)C2)c1 [Compound 1.171] .
Marked response: 5.47

Exam item: In one line, give reported pKi of the entry NC(=O)c1cccc(CN2CCC[C@H](Nc3ccc4[nH]ncc4c3)C2)c1 [Compound 1.219] .
Marked response: 5.30

Exam item: In one line, give reported pKi of the entry Cc1ccc(CN2CCC[C@@H](Nc3ccc4[nH]ncc4c3)C2)cc1 [Compound 1.133] .
Marked response: 6.27

Exam item: In one line, give reported pKi of the entry CCCS(=O)(=O)Nc1cc(CN2CCC[C@H](Nc3ccc4[nH]ncc4c3)C2)ccc1C [Compound 1.238] .
Marked response: 5.58

Exam item: In one line, give reported pKi of the entry c1cc2cc(CN3CCC[C@@H](Nc4ccc5[nH]ncc5c4)C3)ccc2o1 [Compound 1.131] .
Marked response: 6.30

* * *

- TARGET: ROCK2 (Homo sapiens, UniProt O75116)
- Construct: purchased Upstate/Chemicon 14-451
- TEST: Rho kinase inhibition assay (IMAP fluorescence polarization), ROCK2
- Assay type: biochemical
- RECORDED CONDITIONS: average Ki; read-out: ROCK2 Ki
Note to self: Ki under 4 nM means t, ties and anything higher get f.

Exam item: I'd appreciate it if you could check whether Cc1ccc(S(=O)(=O)Nc2cc(CN3CCC[C@@H](Nc4ccc5[nH]ncc5c4)C3)ccc2C)cc1 has Ki smaller than 4 nM.
Marked response: f

Exam item: I'd appreciate it if you could check whether Brc1ccc(CN2CCC[C@@H](Nc3ccc4[nH]ncc4c3)C2)cc1 has Ki smaller than 4 nM.
Marked response: f

Exam item: I'd appreciate it if you could check whether NC(=O)Cn1ccc2ccc(CN3CC[C@@H](Nc4cccc5cnccc45)C3)cc21 has Ki smaller than 4 nM.
Marked response: t

Exam item: I'd appreciate it if you could check whether c1cc2cc(CN3CCC[C@H](Nc4ccc5[nH]ncc5c4)C3)ccc2[nH]1 has Ki smaller than 4 nM.
Marked response: f

Exam item: I'd appreciate it if you could check whether c1cc2cc(CN3CCC[C@@H](Nc4ccc5[nH]ncc5c4)C3)ccc2o1 has Ki smaller than 4 nM.
Marked response: t

Exam item: I'd appreciate it if you could check whether Clc1ccc(CN2CCC[C@H](Nc3ccc4[nH]ncc4c3)C2)cc1 has Ki smaller than 4 nM.
Marked response: t

Exam item: I'd appreciate it if you could check whether NC(=O)Cn1ccc2cc(CN3CCC[C@@H](Nc4ccc5[nH]ncc5c4)C3)ccc21 has Ki smaller than 4 nM.
Marked response: t

Exam item: I'd appreciate it if you could check whether OCc1ccc(CN2CCC[C@H](Nc3ccc4[nH]ncc4c3)C2)cc1 has Ki smaller than 4 nM.
Marked response: f

Exam item: I'd appreciate it if you could check whether CSc1ccc(CN2CC[C@@H](Nc3cccc4cnccc34)C2)cc1 has Ki smaller than 4 nM.
Marked response: f

* * *

- TARGET: ROCK2 (Homo sapiens, UniProt O75116)
- Construct: purchased Upstate/Chemicon 14-451
- TEST: Rho kinase inhibition assay (IMAP fluorescence polarization), ROCK2
- Assay type: biochemical
- RECORDED CONDITIONS: 10 μM ATP; read-out: ROCK2 Ki, Avg
Can you tell me pKi for the items I'm about to list?
pKi here: minus log base 10 of the concentration, concentration in moles per litre.

Exam item: In one line, give reported pKi of the entry OCCN1CCc2ccc(CN3CCC[C@H](Nc4ccc5[nH]ncc5c4)C3)cc21 .
Marked response: 7.92

Exam item: In one line, give reported pKi of the entry c1cc2cc(CN3CCC[C@H](Nc4ccc5[nH]ncc5c4)C3)ccc2s1 .
Marked response: 8.12

Exam item: In one line, give reported pKi of the entry Cc1ccc(S(=O)(=O)Nc2cc(CN3CCC[C@H](Nc4ccc5[nH]ncc5c4)C3)ccc2C)cc1 .
Marked response: 8.20

* * *

- TARGET: ROCK2 (Homo sapiens, UniProt O75116)
- Construct: purchased Upstate/Chemicon 14-451
- TEST: Rho kinase inhibition assay (IMAP fluorescence polarization), ROCK2;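 note: kinase reaction started with 10 µM ATP and run 60 min at room temperature, then phosphorylated substrate captured on IMAP beads for 30 min and fluorescence polarization read in mP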
- Type: biochemical
- RECORDED CONDITIONS: 10 μM ATP; read-out: ROCK2 Ki, Avg
Can you tell me pKi for the items I'm about to list?
pKi here: minus log base 10 of the concentration, concentration in moles per litre.

Exam item: In one line, give reported pKi of the entry OCCn1ccc2cc(CN3CCC[C@@H](Nc4ccc5[nH]ncc5c4)C3)ccc21 .
Marked response: 7.39

Exam item: In one line, give reported pKi of the entry CSc1ccc(CN2CCC[C@H](Nc3ccc4[nH]ncc4c3)C2)cc1 .
Marked response: 8.36

Exam item: In one line, give reported pKi of the entry OCCCOc1cccc(CN2CCC[C@H](Nc3ccc4[nH]ncc4c3)C2)c1 .
Marked response: 7.45

Exam item: In one line, give reported pKi of the entry Cc1ccc(CN2CC[C@@H](Nc3cccc4cnccc34)C2)cc1NS(C)(=O)=O .
Marked response: 8.62

Exam item: In one line, give reported pKi of the entry COc1ccc(CN2CCC[C@H](Nc3ccc4[nH]ncc4c3)C2)cc1 .
Marked response: 8.33

Exam item: In one line, give reported pKi of the entry Clc1ccc(CN2CC[C@@H](Nc3cccc4cnccc34)C2)cc1Cl .
Marked response: 7.46

Exam item: In one line, give reported pKi of the entry CC(CN1CCC[C@@H](Nc2ccc3[nH]ncc3c2)C1)c1ccccc1 (stereo partly drawn) .
Marked response: 7.31

Exam item: In one line, give reported pKi of the entry Brc1ccc(CN2CCC[C@H](Nc3ccc4[nH]ncc4c3)C2)cc1 .
Marked response: 7.92

Exam item: In one line, give reported pKi of the entry CCS(=O)(=O)Nc1cccc(CN2CC[C@@H](Nc3cccc4cnccc34)C2)c1 .
Marked response: 8.02

Exam item: In one line, give reported pKi of the entry CCOC(=O)COc1cccc(CN2CCC[C@@H](Nc3ccc4[nH]ncc4c3)C2)c1 .
Marked response: 7.34

Exam item: In one line, give reported pKi of the entry C#Cc1cccc(CN2CCC[C@H](Nc3ccc4[nH]ncc4c3)C2)c1 .
Marked response: 8.38

Exam item: In one line, give reported pKi of the entry O=c1[nH]ccc2c(N[C@@H]3CCN(Cc4cccc(OCCO)c4)C3)cccc12 .
Marked response: 6.34

Exam item: In one line, give reported pKi of the entry CSc1nccc(CN2CC[C@@H](Nc3cccc4cnccc34)C2)n1 .
Marked response: 8.05

Exam item: In one line, give reported pKi of the entry CC(C)c1ccc(CN2CCC[C@@H](Nc3ccc4[nH]ncc4c3)C2)cc1 .
Marked response: 7.50

Exam item: In one line, give reported pKi of the entry OCCn1ccc2ccc(CN3CC[C@@H](Nc4cccc5cnccc45)C3)cc21 .
Marked response: 8.49

Exam item: In one line, give reported pKi of the entry c1cc2cc(CN3CCC[C@H](Nc4ccc5[nH]ncc5c4)C3)ccc2o1 .
Marked response: 8.49

Exam item: In one line, give reported pKi of the entry CS(=O)(=O)Nc1cccc(CN2CC[C@H](Nc3cccc4cnccc34)C2)c1 .
Marked response: 6.69

Exam item: In one line, give reported pKi of the entry NCc1cccc(CN2CCC[C@@H](Nc3ccc4[nH]ncc4c3)C2)c1 .
Marked response: 6.47

Exam item: In one line, give reported pKi of the entry CS(=O)(=O)Nc1cccc(CN2CCC[C@@H](Nc3ccc4[nH]ncc4c3)C2)c1 .
Marked response: 8.11

Exam item: In one line, give reported pKi of the entry CCOc1cccc(CN2CCC[C@H](Nc3ccc4[nH]ncc4c3)C2)c1 .
Marked response: 7.71

Exam item: In one line, give reported pKi of the entry CC(C)(C)OC(=O)COc1cccc(CN2CCC[C@H](Nc3ccc4[nH]ncc4c3)C2)c1 .
Marked response: 7.76

Exam item: In one line, give reported pKi of the entry FC(F)(F)c1cccc(CN2CC[C@@H](Nc3cccc4cnccc34)C2)c1 .
Marked response: 7.32

Exam item: In one line, give reported pKi of the entry OCCOc1cc(CN2CC[C@@H](Nc3cccc4cnccc34)C2)ccc1F .
Marked response: 8.24

Exam item: In one line, give reported pKi of the entry c1cc2c(cc1CN1CCC[C@@H](Nc3ccc4[nH]ncc4c3)C1)CCO2 .
Marked response: 7.95

FYI, the data here is from patent US20090325959A1.
